System: Noggin (protein binding on small-molecule microarray)
Method description: Noggin binders on small-molecule microarray, primary screen, biochemical, 635/667 nm fluorescence (AID 1095);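 also: score merges 667 nm feature fluorescence with signal to noise over triplicate slides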
Settings: 635 nm fluorescence, higher = more signal
Recorded measurements of composite z-score, one per entry
No unit in the answer, only the number.

Below: 3 molecules and their reported composite z-score.
molecule=CCCC[C@@H]1C[C@H]1[C@@H](NC(=O)c1ccccc1)c1ccc(C(F)(F)F)cc1 observable="composite z-score" readout_value=0.337
molecule="C=CCC(OC(C)=O)[C@@H]1[C@@H](N(Cc2ccc(-c3cccc(C(F)(F)F)c3)o2)C(=O)c2ccc(C)cc2)c2cc(OCCCO)ccc2N1C(=O)c1ccc2ccccc2c1 (some centres undefined)" observable="composite z-score" readout_value=0.485
molecule=CCOC(=O)C[C@H]1[C@H](OC(=O)c2cc3ccccc3oc2=O)[C@@H](NC(=O)c2ccc(-c3ccccc3)cc2)c2cc(OCCCO)ccc2N1C(=O)c1ccccc1 observable="composite z-score" readout_value=1.68

Now, please, on to the next molecule.
## Input // fetch Noggin (protein binding on small-molecule microarray) composite z-score for `COC(=O)[C@H](Cc1ccccc1)N1CC(/C=C/C2CC2)=C[C@H]1[C@H](O)Cc1ccccc1`
## Output 0.961

----------
Tested on: wheat germ agglutinin (Triticum aestivum), Alexa647-labelled
Method description: wheat germ agglutinin binders on compound microarrays, profiling panel, artefact control for SMM control-protein annotation, biochemical, small-molecule microarray, 635/667 nm fluorescence (AID 1140);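 also: score merges 667 nm feature emission with signal to noise over triplicate slides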
Settings: WGA-A647 binding, 635 nm fluorescence, higher = more signal
Observable: composite z-score
No unit in the answer, only the number.

compound="CC(C)N1CC=CC23O[C@@H]4C=CCOC(=O)[C@@H]4[C@H]2C(=O)N(CCCO)[C@@H]3C1=O (some centres undefined)" observable="composite z-score" readout_value=-0.17
compound="O=C1C2C=CC(C(O)c3ccc(F)cc3)N(n3cnnc3)C2C(=O)N1Cc1ccccc1 (centres undefined)" observable="composite z-score" readout_value=-0.271
compound="[N-]=[N+]=NCc1ccccc1[C@@H]1OC(c2ccc(OCCCO)cc2)=N[C@]1(CCS(=O)(=O)c1ccccc1)C(=O)NCC(O)CO (some centres undefined)" observable="composite z-score" readout_value=1.16
compound=CCOC(=O)[C@H]1[C@@H]2C(=O)N3CCC[C@H]3[C@H](O[Si](C(C)C)(C(C)C)C(C)C)[C@H]2C=C2CCN(S(=O)(=O)c3ccc(C)cc3)C[C@H]21 observable="composite z-score" readout_value=0.255
compound=C=CCOC(=O)[C@H]1[C@@H]2C(=O)O[C@@H](c3ccccc3)[C@@H](c3ccccc3)N2[C@@H](c2ccc(OCCOC(=O)[C@@H]3C[C@@H]4C(=O)N5CCC[C@H]5C(=O)N4[C@@H]3c3ccc(O)cc3)cc2)[C@]12C(=O)Nc1ccc(I)cc12 observable="composite z-score" readout_value=0.671
compound=CCCC[C@@H]1C[C@H]1[C@@H](NC(=O)c1cccs1)c1ccc(C(F)(F)F)cc1 observable="composite z-score" readout_value=-0.945

## Input For Cc1cc(C)cc(N2C(=O)CSC2c2cccc([N+](=O)[O-])c2)c1 (centres undefined) , what is its reported composite z-score?
## Output 1.1

## Input For `CC(C)(C)OC(=O)CC[C@]1(C(=O)NCc2ccccc2)N=C(c2ccc(OCCCO)cc2)O[C@H]1c1ccccc1CN=[N+]=[N-]` , what is its reported composite z-score?
## Output 0.571

## Input For `O=C1O[C@H](c2ccccc2)[C@H](c2ccccc2)N2[C@H]1[C@@H](C(=O)Nc1nc3ccccc3s1)[C@]1(C(=O)Nc3ccc(C#CCCO)cc31)[C@H]2c1ccc(O)cc1` , what is its reported composite z-score?
## Output 1.1

## Input For CC(C)(C)N1CC=CC23O[C@@H]4C=CCOC(=O)[C@@H]4[C@H]2C(=O)N(CCCCCCO)[C@@H]3C1=O (some centres undefined) , what is its reported composite z-score?
## Output 0.132

## Input For `C=C(C)c1cc2c(c(CCCCCC)n1)[Si](C(C)C)(C(C)C)OC2` , what is its reported composite z-score?
## Output -1.19

----------
Method description: S. cerevisiae growth modulation with rapamycin, primary screen, strain BY4716, OD600, 96 h (AID 1091); also: test concentration not given here
Settings: higher = more signal, called active from +8 up or from −8 down
Active and inactive are the calls of the source.
Recorded measurements of z-score, one per entry

## Input For `C=CCOC(=O)[C@H]1[C@@H]2C(=O)O[C@@H](c3ccccc3)[C@@H](c3ccccc3)N2[C@@H](c2ccc(OCCOC(=O)[C@@H]3C[C@@H]4C(=O)N[C@@H](CCCCN(C)C)C(=O)N4[C@@H]3c3ccc(O)cc3)cc2)[C@]12C(=O)Nc1ccccc12` , what is its reported z-score?
## Output 0.436 (inactive)

## Input For `CCOC(=O)C[C@H]1[C@H](OC(=O)Cc2ccc3c(c2)OCO3)[C@@H](NC(=O)CC(C)C)c2cc(OCCCO)ccc2N1C(=O)Cc1ccc(OC)cc1` , what is its reported z-score?
## Output -0.733 (inactive)

## Input For `COc1ccc([Si](C)(C)[C@@H]2[C@@H](CCn3cc([C@H](O)c4ccccc4)nn3)O[C@]3(C(=O)N(Cc4ccc(N5CCC5=O)cc4)c4ccccc43)[C@H]2C)cc1` , what is its reported z-score?
## Output 3.51 (inactive)

----------
Target desc: Calmodulin-1 (Homo sapiens) (UniProt P0DP23)
Method description: CALM1 binders on microarrays, EGTA buffer, profiling panel, biochemical, small-molecule microarray, Cy5-labelled CALM1 (AID 1111);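 also: labelled calmodulin applied in Tris saline Tween buffer holding calcium plus EGTA and DTT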
Settings: Cy5-CALM1 binding fluorescence, higher = more signal
Returns Criterion met if the recorded composite z-score is greater than or equal to 0.7, and Criterion not met otherwise.

Study these solved cases before continuing.
compound="C=CCC(OC(C)=O)[C@@H]1[C@@H](N(Cc2ccc(-c3cccc(C(F)(F)F)c3)o2)C(=O)c2ccc(C)cc2)c2cc(OCCCO)ccc2N1C(=O)c1ccc2ccccc2c1 (stereo partly drawn)" class_assignment="Criterion not met"
compound="[N-]=[N+]=NCc1ccccc1[C@@H]1OC(c2ccc(OCCCO)cc2)=N[C@]1(CCS(=O)(=O)c1ccccc1)C(=O)NCC(O)CO (stereo partly drawn)" class_assignment="Criterion met"
compound=COC(=O)Cn1c(C(=O)N(C)C)cc2c1C[C@H]1CN(C(=O)c3ccccc3)[C@@](Cc3ccc(F)cc3)(C(=O)OC)[C@@H]21 class_assignment="Criterion not met"
compound=COC(=O)[C@@]1(Cc2ccc(OC)cc2)[C@H]2c3cc(C(=O)N(C)C)n(Cc4ccc(Cl)c(C(F)(F)F)c4)c3C[C@H]2CN1C(=O)c1ccccc1 class_assignment="Criterion met"
compound=C=C(COC)C(=O)CC[C@@H](OC(=O)c1cccnc1)c1ccc(OCCO)cc1 class_assignment="Criterion not met"

## Input Reported composite z-score at or above 0.7? `COCCCNC(=O)[C@@]1(Cc2ccccc2N=[N+]=[N-])N=C(c2ccc(OCCCO)cc2)O[C@H]1c1ccccc1`
## Output Criterion met

## Input Reported composite z-score at or above 0.7? `COC(=O)[C@@]1(Cc2ccc(F)cc2)[C@H]2c3cc(C(=O)N4CCCC4)n(CCN4CNCC4=O)c3C[C@H]2CN1C(=O)c1ccccc1`
## Output Criterion not met

## Input Reported composite z-score at or above 0.7? C=CCC(OC(C)=O)[C@@H]1[C@@H](N(Cc2cccc3ccccc23)C(=O)Cc2ccc(F)cc2)c2cc(OCCCO)ccc2N1C(=O)c1ccc2ccccc2n1 (stereo partly drawn)
## Output Criterion not met

## Input Reported composite z-score at or above 0.7? C=CCC(OC(C)=O)[C@@H]1[C@@H](N(Cc2cc3ccccc3o2)C(=O)Cc2ccc(F)cc2)c2cc(OCCCO)ccc2N1C(=O)c1ccc2ccccc2c1 (stereo partly drawn)
## Output Criterion not met

## Input Reported composite z-score at or above 0.7? `O=C1N(Cc2ccccc2)Cc2ccccc2[C@@H]2OC(c3ccc(OCCCO)cc3)=N[C@]12CCS(=O)(=O)c1ccccc1`
## Output Criterion met

## Input Reported composite z-score at or above 0.7? `O=C1O[C@H](c2ccccc2)[C@H](c2ccccc2)N2[C@H]1[C@@H](C(=O)Nc1nc3ccccc3s1)[C@]1(C(=O)Nc3ccccc31)[C@H]2c1ccc(OCCO)cc1`
## Output Criterion not met

## Input Reported composite z-score at or above 0.7? `COc1cc2c(cc1OC)CN(C(=O)[C@@H]1[C@H]3C(=O)O[C@H](c4ccccc4)[C@H](c4ccccc4)N3[C@H](c3ccc(OCCO)cc3)[C@@]13C(=O)Nc1ccccc13)CC2`
## Output Criterion met

## Input Reported composite z-score at or above 0.7? NC(=O)N1C(=O)C2C(C1=O)C1C=C(CCCO)C2C(c2cccs2)N1Cc1cccc(OC(F)(F)F)c1 (stereo not drawn)
## Output Criterion not met

## Input Reported composite z-score at or above 0.7? `CC(=O)NCCCC[C@@H]1NC(=O)[C@@H]2C[C@H](C(=O)NCCCC[N+](C)(C)C)[C@H](c3ccc(O)cc3)N2C1=O`
## Output Criterion not met

## Input Reported composite z-score at or above 0.7? `NCCCCCNC(=O)[C@@H]1C[C@@H]2C(=O)NCC(=O)N2[C@@H]1c1cccc(OCCO)c1`
## Output Criterion met

## Input Reported composite z-score at or above 0.7? `COC(=O)[C@H](Cc1ccccc1)N1CC(/C=C/C2CC2)=C[C@H]1[C@H](O)Cc1ccccc1`
## Output Criterion not met

## Input Reported composite z-score at or above 0.7? `CCOC(=O)C1=C[C@@H](c2ccccc2)N(S(=O)(=O)c2ccc(C)cc2)[C@H]1c1ccccc1Cl`
## Output Criterion met

## Input Reported composite z-score at or above 0.7? `O=C1N(Cc2ccccc2)c2ccccc2[C@@H]2OC(c3ccc(OCCCO)cc3)=N[C@]12Cc1ccccc1`
## Output Criterion met

## Input Reported composite z-score at or above 0.7? CC=CC(O)C1C=CC2C(=O)N(c3ccccc3)C(=O)C2N1Nc1ccccc1F (stereo not drawn)
## Output Criterion not met

## Input Reported composite z-score at or above 0.7? `COCCOC(=O)N1C(=O)[C@@]2(c3cc(C#CC4=CCCCC4)ccc31)[C@H](C(=O)N1CCCCCCC1)[C@H]1C(=O)O[C@H](c3ccccc3)[C@H](c3ccccc3)N1[C@@H]2c1ccc(O)cc1`
## Output Criterion met

## Input Reported composite z-score at or above 0.7? `CC(C)C(=C=CC[C@H](O)c1ccc(OCCO)cc1)C[C@H](O)c1ccccn1`
## Output Criterion not met

## Input Reported composite z-score at or above 0.7? `COc1ccc([Si](C)(C)[C@@H]2[C@@H](CCO)O[C@]3(C(=O)N(Cc4ccc(N5CCCCC5=O)cc4)c4ccccc43)[C@H]2C)cc1`
## Output Criterion not met

These data points were gathered from PubChem BioAssay.
